System: CEM cells
Method: Intrinsic toxicity of the test compound in CEM cells without virus (MTT)
Assay type: cell-based
Applied Conditions: Table 14, medium without virus, 7 days
Attribute Measured: TD50 (µM)
Output spec: scalar in µM, unitless text.

Data request: Request the reported TD50 associated with CC(C)CN(CC(O)C(Cc1ccccc1)NC(=O)C(CC(N)=O)NC(=O)c1ccc2ccccc2n1)C(=O)NC(C)(C)C (stereo not shown)
Data returned: 16

Data request: Then this compound: CC(C)(C)NC(=O)N(CCc1ccccc1)CC(O)C(Cc1ccccc1)NC(=O)C(CC(N)=O)NC(=O)c1ccc2ccccc2n1 (stereo not shown)
Data returned: 13

Data request: Then this compound: `CCCCNC(=O)N(CC(C)C)C[C@@H](O)[C@H](Cc1ccccc1)NC(=O)[C@H](CC(N)=O)NC(=O)c1ccc2ccccc2n1`
Data returned: 53

Attribution: patent EP0813867B1
